# TARGET DESC: Vasopressin V2 receptor (Homo sapiens, UniProt P30518)
# Sequence (P30518 whole entry): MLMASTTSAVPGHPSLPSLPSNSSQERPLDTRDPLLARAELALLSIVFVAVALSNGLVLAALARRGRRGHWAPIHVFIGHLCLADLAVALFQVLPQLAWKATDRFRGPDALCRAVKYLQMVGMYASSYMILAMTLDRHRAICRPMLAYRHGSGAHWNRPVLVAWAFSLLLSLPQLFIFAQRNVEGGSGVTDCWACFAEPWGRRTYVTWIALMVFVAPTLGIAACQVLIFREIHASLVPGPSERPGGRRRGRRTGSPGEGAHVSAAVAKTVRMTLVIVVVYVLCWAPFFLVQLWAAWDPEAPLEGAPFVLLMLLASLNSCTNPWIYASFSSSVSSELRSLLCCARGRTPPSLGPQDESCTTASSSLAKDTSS
# MEASUREMENT DESCRIPTION: Ability to displace [3H]arginine vasopressin in cloned human V2 receptor
Listed here: items and their measured IC50.
Enter your answer as a number in nM; do not include the unit.

Observe how each entry below is paired with its result.
INSERT INTO results (compound, result_number) VALUES
  ('O=C(Nc1ccc(C(=O)N2CCC(CCO)Sc3ccccc32)cc1)c1ccccc1-c1ccccc1 (centres undefined)', 8),
  ('CN(C)CC1CCN(C(=O)c2ccc(NC(=O)c3ccccc3-c3ccccc3)cc2)c2ccccc2S1 (centres undefined)', 430),
  ('O=C(O)CC1CCN(C(=O)c2ccc(NC(=O)c3ccccc3-c3ccccc3)cc2)c2ccccc2S1 (centres undefined)', 7),
  ('O=C(O)C[C@@H]1CCN(C(=O)c2ccc(NC(=O)c3ccccc3-c3ccccc3)cc2)c2ccccc2S1', 8),
  ('O=C(Nc1ccc(C(=O)N2CCC(CCF)Sc3ccccc32)cc1)c1ccccc1-c1ccccc1 (centres undefined)', 85),
  ('O=C(O)CC[C@H]1CCN(C(=O)c2ccc(NC(=O)c3ccccc3-c3ccccc3)cc2)c2ccccc2S1', 15);

Record request: IC50 value, item "O=C(O)CC[C@@H]1CCN(C(=O)c2ccc(NC(=O)c3ccccc3-c3ccccc3)cc2)c2ccccc2S1"
16

Which IC50 is reported for this compound? O=C(Nc1ccc(C(=O)N2CCC(CC(F)F)Sc3ccccc32)cc1)c1ccccc1-c1ccccc1 (centres undefined)
100

Param item = "O=C(O)C[C@H]1CCN(C(=O)c2ccc(NC(=O)c3ccccc3-c3ccccc3)cc2)c2ccccc2S1" ; retrieve measured IC50.
7

====

# TARGET DESC: UniProtKB P37288
# MEASUREMENT DESCRIPTION: Inhibition of vasopressin induced calcium […] in human V1a receptor expressing cells
# Format: functional
Each entry below lists one item and its recorded pIC50 value.
Quick note: pIC50 values are minus log10 of concentrations in mol/L.

So what pIC50 did O=C(O)CC1CCN(C(=O)c2ccc(NC(=O)c3ccccc3-c3ccccc3)cc2)c2ccccc2S1 (stereo unspecified) get with UniProtKB P37288?
6.13

====

Listed here: items and their measured log10(IC50).
# TARGET DESC: Vasopressin V1a receptor (Homo sapiens)
# Sequence (P37288 whole entry): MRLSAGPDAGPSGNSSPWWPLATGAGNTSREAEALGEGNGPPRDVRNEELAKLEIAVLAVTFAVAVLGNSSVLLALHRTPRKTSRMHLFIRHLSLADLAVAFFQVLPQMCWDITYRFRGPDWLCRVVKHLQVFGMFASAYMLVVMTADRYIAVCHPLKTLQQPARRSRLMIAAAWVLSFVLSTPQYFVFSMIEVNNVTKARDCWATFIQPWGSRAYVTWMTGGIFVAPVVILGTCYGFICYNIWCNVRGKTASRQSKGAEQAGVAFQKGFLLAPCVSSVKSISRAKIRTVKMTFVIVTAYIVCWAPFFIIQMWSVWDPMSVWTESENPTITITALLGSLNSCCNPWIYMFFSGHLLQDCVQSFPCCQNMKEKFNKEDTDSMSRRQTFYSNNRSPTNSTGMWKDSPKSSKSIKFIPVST
# MEASUREMENT DESCRIPTION: Inhibition of vasopressin induced calcium […] in human V1a receptor expressing cells
# Type: functional
Transform log10 | Measure IC50 | Unit µM

Solved cases below.
INSERT INTO assay_data (compound, target_desc, result_number) VALUES
  ('O=C(O)C[C@H]1CCN(C(=O)c2ccc(NC(=O)c3ccccc3-c3ccccc3)cc2)c2ccccc2S1', 'Vasopressin V1a receptor (Homo sapiens)', 0.33),
  ('O=C(O)CC[C@@H]1CCN(C(=O)c2ccc(NC(=O)c3ccccc3-c3ccccc3)cc2)c2ccccc2S1', 'Vasopressin V1a receptor (Homo sapiens)', 0.67),
  ('O=C(Nc1ccc(C(=O)N2CCC(CCO)Sc3ccccc32)cc1)c1ccccc1-c1ccccc1 (stereo not given)', 'Vasopressin V1a receptor (Homo sapiens)', -0.82),
  ('O=C(O)CC[C@H]1CCN(C(=O)c2ccc(NC(=O)c3ccccc3-c3ccccc3)cc2)c2ccccc2S1', 'Vasopressin V1a receptor (Homo sapiens)', 0.30);

For the next question, use this compound.
Any idea what log10(IC50) was measured for "O=C(O)C[C@@H]1CCN(C(=O)c2ccc(NC(=O)c3ccccc3-c3ccccc3)cc2)c2ccccc2S1" ?
0.25

Provenance of the data: ChEMBL document CHEMBL1136360
